- Measurement target: kinase enzymes (Homo sapiens, UniProt P42336)
- Sequence (P42336 whole entry): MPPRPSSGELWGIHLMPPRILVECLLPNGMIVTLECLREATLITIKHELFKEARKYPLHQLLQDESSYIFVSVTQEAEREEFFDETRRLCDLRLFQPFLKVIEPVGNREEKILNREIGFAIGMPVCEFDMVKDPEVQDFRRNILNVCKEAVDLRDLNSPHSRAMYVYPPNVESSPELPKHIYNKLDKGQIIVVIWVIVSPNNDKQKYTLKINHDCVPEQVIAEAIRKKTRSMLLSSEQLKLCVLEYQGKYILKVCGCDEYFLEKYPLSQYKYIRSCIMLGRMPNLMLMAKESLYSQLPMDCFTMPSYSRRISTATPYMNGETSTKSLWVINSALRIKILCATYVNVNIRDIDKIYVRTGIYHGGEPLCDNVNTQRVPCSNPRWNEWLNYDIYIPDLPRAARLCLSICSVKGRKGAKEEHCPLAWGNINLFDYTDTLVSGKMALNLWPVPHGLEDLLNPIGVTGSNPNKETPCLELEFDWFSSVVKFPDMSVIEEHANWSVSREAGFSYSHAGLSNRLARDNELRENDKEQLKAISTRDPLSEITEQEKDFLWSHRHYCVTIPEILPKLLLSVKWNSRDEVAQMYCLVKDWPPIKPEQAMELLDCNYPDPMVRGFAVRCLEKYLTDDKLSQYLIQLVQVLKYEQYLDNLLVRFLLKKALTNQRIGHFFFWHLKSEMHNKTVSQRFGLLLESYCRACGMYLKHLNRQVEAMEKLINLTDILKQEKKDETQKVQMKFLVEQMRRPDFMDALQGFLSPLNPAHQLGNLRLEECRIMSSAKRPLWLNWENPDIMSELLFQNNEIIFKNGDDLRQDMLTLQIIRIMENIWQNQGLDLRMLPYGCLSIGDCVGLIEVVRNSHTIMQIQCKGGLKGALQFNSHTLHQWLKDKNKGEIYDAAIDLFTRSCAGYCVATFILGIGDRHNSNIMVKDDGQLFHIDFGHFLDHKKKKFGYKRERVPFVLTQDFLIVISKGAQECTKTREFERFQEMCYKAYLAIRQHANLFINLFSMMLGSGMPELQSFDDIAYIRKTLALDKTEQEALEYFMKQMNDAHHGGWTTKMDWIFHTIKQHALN
Quantity measured: pKd
Conceptually, pKd converts a concentration in mol/L into minus its log10.

CC(C)NCCNC(=O)c1cc(C(C)Nc2ccc(F)c(F)c2)c2nc(N3CCOCC3)cnc2c1 (single isomer, unassigned) [Compound 364a]; 5.61

Next molecule, please.
Incoming: Return reported pKd; argument: CC(Nc1cccc(F)c1)c1cc(C(=O)NC[C@@H](C)O)cc2ncc(N3CCOCC3)nc12 (single isomer, unassigned) [Compound 338b]
Outgoing: 4.64

###

Measured melting point by item
Give the quantity in °C, number only.

Sample answers from the record:
C[C@H](Nc1cccc(F)c1)c1cc(C(=O)NCCO)cc2ncc(N3CCOCC3)nc12 [Compound 118]; 237
CC(c1cc(C(=O)O)cc2ncc(N3CCOCC3)nc12)N(C)c1cccc(F)c1 (stereo not shown) [Compound 98]; 240
CC(Nc1ccc(F)c(F)c1)c1cc(C(=O)NC[C@@H](C)O)cc2ncc(N3CCOCC3)nc12 (single isomer, unassigned) [Compound 346a]; 107
CC(Nc1cc(F)cc(F)c1)c1cc(C(=O)NC[C@H](C)O)cc2ncc(N3CCOCC3)nc12 (single isomer, unassigned) [Compound 246b]; 75
O=C(c1cc(C2CCCN2c2cc(F)cc(F)c2)c2nc(N3CCOCC3)cnc2c1)N1CCS(=O)(=O)CC1 (single isomer, unassigned) [Compound 43]; 80

Incoming: Return reported melting point; argument: O=C(NCCO)c1cc(NCc2cccc(F)c2C2CCNCC2)c2nc(N3CCOCC3)cnc2c1 [Compound 317]
Outgoing: 167

Incoming: Similarly, CC(Nc1cc(F)c(F)c(F)c1)c1cc(C(=O)NC[C@@H](C)O)cc2ncc(N3CCOCC3)nc12 (single isomer, unassigned) [Compound 284a] ?
Outgoing: 113

###

- System: Akt phosphorylated at Ser473 in PC-3 cells
- Test details: Cellular assay: phosphorylation of Akt at Ser473 in PC-3 cells (MSD ELISA)
- Format: cell-based
- Particulars: PC-3 cells, 60 min compound incubation, MSD ELISA; read-out: IC50 pAkt_S473
Quantity measured: IC50

CN[C@H]1CCN(C(=O)c2cc(C(C)Nc3cc(F)c(F)c(F)c3)c3nc(N4CCOCC4)cnc3c2)C1 (single isomer, unassigned) [Compound 297a]; 200 nM
CC(Nc1cc(F)cc(F)c1)c1cc(CN2CCS(=O)(=O)CC2)cc2ncc(N3CCOCC3)nc12 (single isomer, unassigned) [Compound 157]; > 513 nM
CC(Nc1ccc(F)c(F)c1)c1cc(C(=O)N(C)C2CCNC2)cc2ncc(N3CCOCC3)nc12 (stereo not drawn) [Compound 322b]; 42 nM
CC(Oc1cccc(F)c1)c1cc(C(=O)NCCO)cc2ncc(N3CCOCC3)nc12 (single isomer, unassigned) [Compound 334b]; > 513 nM
CC(Oc1cccc(F)c1)c1cc(C(=O)N(C)C)cc2ncc(N3CCOCC3)nc12 (single isomer, unassigned) [Compound 339a]; > 513 nM
CC(Nc1cc(F)c(F)c(F)c1)c1cc(C(=O)NC[C@@H](C)O)cc2ncc(N3CCOCC3)nc12 (single isomer, unassigned) [Compound 284b]; > 513 nM
CNCCOCCN(C)C(=O)c1cc(C(C)Nc2cc(F)c(F)c(F)c2)c2nc(N3CCOCC3)cnc2c1 (single isomer, unassigned) [Compound 315b]; ~110 nM
CC(Nc1cc(F)cc(F)c1)c1cc(C(=O)N(C)CCN(C)C)cc2ncc(N3CCOCC3)nc12 (single isomer, unassigned) [Compound 181]; ~447 nM
CC(Nc1cc(F)c(F)c(F)c1)c1cc(C(=O)NCC(C)(C)O)cc2ncc(N3CCOCC3)nc12 (single isomer, unassigned) [Compound 292a]; 155 nM
CN[C@H]1CCN(C(=O)c2cc(C(C)Oc3ccc(F)c(F)c3)c3nc(N4CCOCC4)cnc3c2)C1 (single isomer, unassigned) [Compound 370b]; > 513 nM

Incoming: Return reported IC50; argument: CC(Nc1cc(F)cc(F)c1)c1cc(C(=O)N(C)C)cc2ncc(C3=CCOCC3)nc12 (single isomer, unassigned) [Compound 158]
Outgoing: 23 nM

Incoming: Similarly, O=C(c1cc(C2CCCN2c2cc(F)cc(F)c2)c2nc(N3CCOCC3)cnc2c1)N1CCS(=O)(=O)CC1 (single isomer, unassigned) [Compound 38] ?
Outgoing: ~0.8 nM

###

Measured Kd by item
- Measurement target: kinase enzymes (Homo sapiens)
Give the quantity in µM, number only.

CC(Nc1ccc(F)c(F)c1)c1cc(C(=O)NCCCO)cc2ncc(N3CCOCC3)nc12 (stereo not shown) [Compound 280]; 11.2
O=C(NCCO)c1cc(NCc2cc(F)cc(F)c2)c2nc(N3CCOCC3)cnc2c1; 20.4
C[C@H](CO)NCc1ccc(F)cc1N1CCCC1c1cc(C(=O)N(C)C)cc2ncc(N3CCOCC3)nc12 (mixture of isomers); 20.9
O=C(c1cc(C2CCCN2c2cc(F)cc(F)c2)c2nc(N3CCOCC3)cnc2c1)N1CC2(COC2)C1 (single isomer, unassigned); 0.759
C[C@@H](Nc1cc(F)cc(F)c1)c1cc(C(=O)NCCN(C)C)cc2ncc(N3CCOCC3)nc12 [Compound 184a]; 1.48

Next compound, please.
Incoming: Return reported Kd; argument: CC(Oc1cc(F)cc(F)c1)c1cc(C(=O)N(C)CCO)cc2ncc(N3CCOCC3)nc12 (racemic) [Compound 59]
Outgoing: 10.7

###

Reported values: pKd for PI3Kδ (Homo sapiens, UniProt O00329), one per item.
Conceptually, pKd converts a concentration in mol/L into minus its log10.

CCN1CCN(C(=O)c2cc(C3CCCN3c3cc(F)cc(F)c3)c3nc(N4CCOCC4)cnc3c2)CC1 (stereo not drawn); 7.23
CC(Nc1cccc(F)c1)c1cc(C(=O)N2CC[C@@H](O)C2)cc2ncc(N3CCOCC3)nc12 (single isomer, unassigned) [Compound 321a]; 6.76
CC(Nc1cc(F)cc(F)c1)c1cc(C(=O)O)cc2ncc(N3CCOCC3)nc12 (single isomer, unassigned) [Compound 83c]; 5.31
CC(Nc1ccc(F)c(F)c1)c1cc(C(=O)NCCO)cc2ncc(N3CCOCC3)nc12 (single isomer, unassigned) [Compound 279a]; 6.29

Incoming: Return reported pKd; argument: CC(Nc1cccc(Cl)c1)c1cc(C(=O)N2CCOCC2)cc2ncc(N3CCOCC3)nc12 (stereo not drawn)
Outgoing: 6.31

###

- Measurement target: PI3Kβ (Homo sapiens, UniProt P42338)
- Construct: purchased DiscoveRx Corporation, San Diego (contract service, KINOMEscan)
- Sequence (P42338 whole entry): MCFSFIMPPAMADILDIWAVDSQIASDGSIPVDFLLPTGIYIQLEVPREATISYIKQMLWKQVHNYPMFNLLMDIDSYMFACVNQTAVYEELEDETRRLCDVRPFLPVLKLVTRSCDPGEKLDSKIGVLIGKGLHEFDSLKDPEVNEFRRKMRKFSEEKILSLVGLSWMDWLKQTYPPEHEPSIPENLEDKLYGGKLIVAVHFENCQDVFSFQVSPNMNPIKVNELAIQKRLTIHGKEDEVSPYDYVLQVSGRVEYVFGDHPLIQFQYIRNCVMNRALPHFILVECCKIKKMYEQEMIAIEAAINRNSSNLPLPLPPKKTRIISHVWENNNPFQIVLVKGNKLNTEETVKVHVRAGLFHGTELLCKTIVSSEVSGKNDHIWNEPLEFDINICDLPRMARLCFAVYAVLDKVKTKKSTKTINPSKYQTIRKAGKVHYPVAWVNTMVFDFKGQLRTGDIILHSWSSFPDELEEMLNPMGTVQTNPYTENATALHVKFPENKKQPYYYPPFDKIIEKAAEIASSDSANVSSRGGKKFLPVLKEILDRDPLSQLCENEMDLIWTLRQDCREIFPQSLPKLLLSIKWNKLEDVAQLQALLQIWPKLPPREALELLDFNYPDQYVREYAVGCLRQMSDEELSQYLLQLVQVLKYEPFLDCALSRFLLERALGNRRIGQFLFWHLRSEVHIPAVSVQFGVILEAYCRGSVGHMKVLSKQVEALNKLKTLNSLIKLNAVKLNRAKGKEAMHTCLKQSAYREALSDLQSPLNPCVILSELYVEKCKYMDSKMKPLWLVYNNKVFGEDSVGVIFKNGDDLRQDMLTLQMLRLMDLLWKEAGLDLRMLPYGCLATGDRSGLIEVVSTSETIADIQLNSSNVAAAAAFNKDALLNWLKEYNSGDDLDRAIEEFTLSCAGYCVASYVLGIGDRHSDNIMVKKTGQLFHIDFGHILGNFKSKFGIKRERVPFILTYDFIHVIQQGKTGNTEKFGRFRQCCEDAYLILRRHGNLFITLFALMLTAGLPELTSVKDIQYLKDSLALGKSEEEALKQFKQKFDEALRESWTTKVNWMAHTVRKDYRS
- Test details: Enzyme binding assay (KINOMEscan, DiscoveRx)
- Particulars: PIK3Cβ_h, read-out: Kd PIK3Cβ_h
Quantity measured: Kd (µM)
Give the quantity in µM, number only.

Sample answers from the record:
CC(Nc1ccc(F)c(F)c1)c1cc(C(=O)N2CCN3CCC[C@@H]3C2)cc2ncc(N3CCOCC3)nc12 (some centres unmarked) [Compound 347]; 0.004
CC(Nc1ccc(F)c(F)c1)c1cc(C(=O)N2CCN3CCC[C@H]3C2)cc2ncc(N3CCOCC3)nc12 (single isomer, unassigned) [Compound 287b]; 0.027
CC(Oc1ccc(F)c(F)c1)c1cc(C(=O)N2CC[C@H](N(C)C)C2)cc2ncc(N3CCOCC3)nc12 (single isomer, unassigned) [Compound 363a]; 0.01
NC1CCN(C(=O)c2cc(C3CCCN3c3cc(F)cc(F)c3)c3nc(N4CCOCC4)cnc3c2)CC1 (centres unmarked) [Compound 75]; 0.0001
CCc1cccc(NC(C)c2cc(C(=O)N3CCOCC3)cc3ncc(N4CCOCC4)nc23)c1 (centres unmarked) [Compound 125]; 0.068
CC(Nc1cc(F)c(F)c(F)c1)c1cc(C(=O)NCCO)cc2ncc(N3CCOCC3)nc12 (single isomer, unassigned) [Compound 214]; 1.23
CC(C)NCCNC(=O)c1cc(C(C)Oc2ccc(F)c(F)c2)c2nc(N3CCOCC3)cnc2c1 (single isomer, unassigned) [Compound 286b]; 0.002
CNC(=O)c1cc(C2CCCN2c2cc(F)cc(F)c2)c2nc(N3CCOCC3)cnc2c1 (single isomer, unassigned) [Compound 40]; 0.001

Next molecule, please.
Incoming: Return reported Kd; argument: C[C@H](Nc1cc(C(=O)N(C)C)cc2ncc(N3CCOCC3)nc12)c1ccc(F)cc1 [Compound 401]
Outgoing: 0.55

###

- Measurement target: PI3Kδ (Homo sapiens, UniProt O00329)
- Sequence (O00329 1-1044): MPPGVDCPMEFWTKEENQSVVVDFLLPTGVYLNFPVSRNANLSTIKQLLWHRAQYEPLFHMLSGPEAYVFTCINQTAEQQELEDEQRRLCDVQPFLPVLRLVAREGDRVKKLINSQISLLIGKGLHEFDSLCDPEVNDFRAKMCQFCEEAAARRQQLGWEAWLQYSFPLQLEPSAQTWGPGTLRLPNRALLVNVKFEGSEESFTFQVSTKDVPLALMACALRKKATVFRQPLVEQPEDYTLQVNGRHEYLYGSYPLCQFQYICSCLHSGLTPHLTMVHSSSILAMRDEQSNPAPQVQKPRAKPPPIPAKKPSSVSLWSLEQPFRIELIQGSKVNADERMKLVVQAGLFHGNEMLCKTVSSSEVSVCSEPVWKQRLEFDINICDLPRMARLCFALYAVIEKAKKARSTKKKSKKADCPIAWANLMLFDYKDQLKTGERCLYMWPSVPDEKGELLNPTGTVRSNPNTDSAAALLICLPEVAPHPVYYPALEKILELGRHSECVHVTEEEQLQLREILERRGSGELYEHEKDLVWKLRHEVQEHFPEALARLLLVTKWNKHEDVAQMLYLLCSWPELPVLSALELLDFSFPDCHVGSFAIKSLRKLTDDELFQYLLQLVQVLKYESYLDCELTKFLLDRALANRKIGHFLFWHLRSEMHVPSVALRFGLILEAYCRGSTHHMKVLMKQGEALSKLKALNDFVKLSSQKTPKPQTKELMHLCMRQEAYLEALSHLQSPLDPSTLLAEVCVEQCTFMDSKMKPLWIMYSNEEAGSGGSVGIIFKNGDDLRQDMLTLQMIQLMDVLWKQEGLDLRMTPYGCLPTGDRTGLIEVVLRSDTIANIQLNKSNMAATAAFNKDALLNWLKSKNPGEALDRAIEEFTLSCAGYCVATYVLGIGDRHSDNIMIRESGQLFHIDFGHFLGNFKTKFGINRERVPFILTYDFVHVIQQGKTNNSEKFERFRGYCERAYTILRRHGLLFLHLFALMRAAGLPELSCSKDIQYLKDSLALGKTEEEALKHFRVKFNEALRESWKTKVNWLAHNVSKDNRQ
Quantity measured: log10 of Kd (log10 of the value in µM)
Give log10 of Kd, with Kd taken in µM.

CNCCNC(=O)c1cc(C(C)Oc2cc(F)cc(F)c2)c2nc(N3CCOCC3)cnc2c1 (single isomer, unassigned) [Compound 166]; 0.61
CC(Nc1ccc(F)c(F)c1)c1cc(C(=O)NCCCO)cc2ncc(N3CCOCC3)nc12 (stereo not shown) [Compound 280]; -0.37
CC(Oc1ccc(F)c(F)c1)c1cc(C(=O)N2CC[C@@H](N(C)C)C2)cc2ncc(N3CCOCC3)nc12 (single isomer, unassigned) [Compound 298b]; 1.01

Incoming: Return reported log10 of Kd; argument: CC(Nc1cccc(F)c1)c1cc(C(=O)N2CC[C@@H](O)C2)cc2ncc(N3CCOCC3)nc12 (single isomer, unassigned) [Compound 321b]
Outgoing: 0.87

Incoming: Similarly, OCCNCc1cc(C2CCCN2c2cc(F)cc(F)c2)c2nc(N3CCOCC3)cnc2c1 (stereo not shown) ?
Outgoing: -1.44

Incoming: Similarly, CC(Nc1cc(F)cc(F)c1)c1cc(C(=O)N2CCOCC2)cc2ncc(N3CCOCC3)nc12 (single isomer, unassigned) [Compound 8] ?
Outgoing: -0.96

Incoming: Similarly, CNCCNC(=O)c1cc(C(C)Oc2ccc(F)c(F)c2)c2nc(N3CCOCC3)cnc2c1 (single isomer, unassigned) [Compound 344b] ?
Outgoing: 0.58

Incoming: Similarly, CC(Nc1cc(F)c(F)c(F)c1)c1cc(C(=O)N(C)C2CCNC2)cc2ncc(N3CCOCC3)nc12 (single isomer, unassigned) [Compound 296b] ?
Outgoing: 0.97

Incoming: Similarly, CC(Nc1cc(F)cc(F)c1)c1cc(C(=O)NS(N)(=O)=O)cc2ncc(N3CCOCC3)nc12 (single isomer, unassigned) [Compound 243b] ?
Outgoing: 0.53

Incoming: Similarly, CC(Nc1ccc(F)c(F)c1)c1cc(C(=O)N2CCN3CCC[C@@H]3C2)cc2ncc(N3CCOCC3)nc12 (single isomer, unassigned) [Compound 347b] ?
Outgoing: -0.45

Incoming: Similarly, CC(Nc1cc(F)cc(F)c1)c1cc(C(=O)NS(N)(=O)=O)cc2ncc(N3CCOCC3)nc12 (stereo not shown) [Compound 243] ?
Outgoing: -1.15

Incoming: Similarly, CN[C@H]1CCN(C(=O)c2cc(C(C)Nc3cc(F)c(F)c(F)c3)c3nc(N4CCOCC4)cnc3c2)C1 (single isomer, unassigned) [Compound 297a] ?
Outgoing: 0.80
